Measured values drawn from ChEMBL document CHEMBL4118253 for this set.

assay: Cytotoxicity against African green monkey Vero cells assessed as alteration of cell morphology by microscopic analysis; type: cell-based; settings: chlorocebus sabaeus
VALUE_TYPE: MCC

INSERT INTO measurements (compound, experimental_result) VALUES
  ('C/C(=C\CP(=O)(N[C@@H](C)C(=O)OC(C)C)Oc1cccc2c1CCCC2)Cn1ccc(=O)[nH]c1=O (stereo partly drawn)', '> 100 µM'),
  ('C/C(=C\CP(=O)(N[C@@H](C)C(=O)OC(C)C)Oc1cccc2ccccc12)Cn1ccc(=O)[nH]c1=O (stereo partly drawn)', '> 100 µM'),
  ('C/C(=C/CP(=O)(N[C@@H](C)C(=O)OC(C)C)Oc1cccc2c1CCCC2)Cn1cc(C)c(=O)[nH]c1=O (stereo partly drawn)', '> 100 µM'),
  ('C/C(=C/CP(=O)(N[C@@H](C)C(=O)OC(C)C)Oc1cccc2c1CCCC2)Cn1ccc(=O)[nH]c1=O (stereo partly drawn)', '> 100 µM'),
  ('NC(=O)c1ncn([C@@H]2O[C@H](CO)[C@@H](O)[C@H]2O)n1', '> 250 µM'),
  ('C/C(=C/CP(=O)(N[C@@H](C)C(=O)OC(C)C)Oc1cccc2ccccc12)Cn1cc(C)c(=O)[nH]c1=O (stereo partly drawn)', '≥ 20 µM'),
  ('C/C(=C\CP(=O)(N[C@@H](C)C(=O)OC(C)C)Oc1ccccc1)Cn1cc(C)c(=O)[nH]c1=O (stereo partly drawn)', '≥ 20 µM'),
  ('C/C(=C\CP(=O)(N[C@@H](C)C(=O)OCc1ccccc1)Oc1ccccc1)Cn1ccc(=O)[nH]c1=O (stereo partly drawn)', '> 100 µM'),
  ('C/C(=C\CP(=O)(N[C@@H](C)C(=O)OCc1ccccc1)Oc1cccc2ccccc12)Cn1ccc(=O)[nH]c1=O (stereo partly drawn)', '> 100 µM'),
  ('COc1c(C)c2c(c(O)c1C/C=C(\C)CCC(=O)O)C(=O)OC2', '> 100 µM'),
  ('C/C(=C\CP(=O)(N[C@@H](C)C(=O)OCc1ccccc1)Oc1cccc2c1CCCC2)Cn1cc(C)c(=O)[nH]c1=O (stereo partly drawn)', '≥ 100 µM'),
  ('C/C(=C\CP(=O)(N[C@@H](C)C(=O)OCc1ccccc1)Oc1ccccc1)Cn1cc(C)c(=O)[nH]c1=O (stereo partly drawn)', '> 100 µM'),
  ('C/C(=C/CP(=O)(N[C@@H](C)C(=O)OCc1ccccc1)Oc1cccc2c1CCCC2)Cn1cc(C)c(=O)[nH]c1=O (stereo partly drawn)', '≥ 20 µM'),
  ('C/C(=C\CP(=O)(N[C@@H](C)C(=O)OC(C)C)Oc1cccc2c1CCCC2)Cn1cc(C)c(=O)[nH]c1=O (stereo partly drawn)', '≥ 20 µM'),
  ('C/C(=C\CP(=O)(N[C@@H](C)C(=O)OCc1ccccc1)Oc1cccc2ccccc12)Cn1cc(C)c(=O)[nH]c1=O (stereo partly drawn)', '> 100 µM'),
  ('C/C(=C\CP(=O)(N[C@@H](C)C(=O)OCc1ccccc1)Oc1cccc2c1CCCC2)Cn1ccc(=O)[nH]c1=O (stereo partly drawn)', '≥ 100 µM'),
  ('C/C(=C\CP(=O)(N[C@@H](C)C(=O)OC(C)C)Oc1ccccc1)Cn1ccc(=O)[nH]c1=O (stereo partly drawn)', '> 100 µM'),
  ('C/C(=C\CP(=O)(N[C@@H](C)C(=O)OC(C)C)Oc1cccc2ccccc12)Cn1cc(C)c(=O)[nH]c1=O (stereo partly drawn)', '≥ 20 µM');
